Species on record: Rattus norvegicus
Test: DrugMatrix - Regimen: Daily Repeat
Type: toxicity, organism-based, Sprague-Dawley
Set-up: regimen Daily Repeat, gender Male, age 6-8 weeks
Conditions: in vivo, ip, 0 mg/kg, […], tissue Blood, route intraperitoneal, dose level Control, time 14 day, vehicle 100 % SALINE

Smiles Text: NC[C@H]1O[C@H](O[C@H]2[C@H](O)[C@@H](O[C@H]3O[C@H](CO)[C@@H](O)[C@H](N)[C@H]3O)[C@H](N)C[C@@H]2N)[C@H](N)C[C@@H]1O
ABSOLUTE LYMPHOCYTE (cells/µL): 13500

###

Species: Rattus norvegicus
Assay: DrugMatrix - Regimen: Daily Repeat
Format: toxicity, organism-based, Sprague-Dawley
Parameters: regimen Daily Repeat, gender Male, age 6-8 weeks
Settings: in vivo, po, 0 mg/kg, 120 h, tissue Plasma, route oral GAVAGE, dose level Control, time 5 day, vehicle .5 % CMC

Molecule: CCCCC1C(=O)N(c2ccccc2)N(c2ccccc2)C1=O
ALBUMIN / G/DL: 4.28
--
Molecule: COc1ccccc1OCC(O)COC(N)=O (stereo unspecified)
ALBUMIN / G/DL: 4.2
--
Molecule: C=C(CC)C(=O)c1ccc(OCC(=O)O)c(Cl)c1Cl
ALBUMIN / G/DL: 4.02
--
Molecule: CC[C@]1(O)CC[C@H]2[C@@H]3CCC4=CCCC[C@@H]4[C@H]3CC[C@@]21C
ALBUMIN / G/DL: 3.73
--
Molecule: C[C@]12C/C(=C/O)C(=O)C[C@@H]1CC[C@@H]1[C@@H]2CC[C@@]2(C)[C@H]1CC[C@]2(C)O
ALBUMIN / G/DL: 3.72
--
Molecule: Nc1cccc(Cl)c1
ALBUMIN / G/DL: 4

###

Listed here are compounds together with their documented HEMOGLOBIN.
Organism: Rattus norvegicus
Assay: DrugMatrix - Regimen: Daily Repeat
Format: toxicity, organism-based, Sprague-Dawley
Set-up: regimen Daily Repeat, gender Male, age 6-8 weeks
Details: in vivo, po, 0 mg/kg, 72 h, tissue Blood, route oral GAVAGE, dose level Control, time 3 day, vehicle .5 % CMC

Compound: CO[C@H]1C[C@@H]2CC[C@@H](C)[C@@](O)(O2)C(=O)C(=O)N2CCCC[C@H]2C(=O)O[C@H]([C@H](C)C[C@@H]2CC[C@@H](O)[C@H](OC)C2)CC(=O)[C@H](C)/C=C(\C)[C@@H](O)[C@@H](OC)C(=O)[C@H](C)C[C@H](C)/C=C/C=C/C=C/1C [SIROLIMUS]
HEMOGLOBIN / G/DL: 13.38
//
Compound: C[C@@H]1CC[C@H]2[C@@H](C)C(=O)O[C@@H]3O[C@@]4(C)CC[C@@H]1[C@]32OO4 [ARTEMISININ]
HEMOGLOBIN / G/DL: 13.68
//
Compound: C[C@@H](O)[C@H]1C(=O)N2C(C(=O)O)=C(S[C@@H]3CN[C@H](C(=O)N(C)C)C3)[C@H](C)[C@H]12 [MEROPENEM]
HEMOGLOBIN / G/DL: 13.45
//
Compound: Cc1cnc(C(=O)NCCc2ccc(S(=O)(=O)NC(=O)NC3CCCCC3)cc2)cn1 [GLIPIZIDE]
HEMOGLOBIN / G/DL: 13.82
//
Compound: O=c1cc(-c2ccccc2)oc2ccc3ccccc3c12 [BETA-NAPHTHOFLAVONE]
HEMOGLOBIN / G/DL: 13.48
//
Compound: CC(C)(Sc1cc(C(C)(C)C)c(O)c(C(C)(C)C)c1)Sc1cc(C(C)(C)C)c(O)c(C(C)(C)C)c1 [PROBUCOL]
HEMOGLOBIN / G/DL: 13.45

###

Species on record: Rattus norvegicus
Test: DrugMatrix - Regimen: Daily Repeat
Format: toxicity, organism-based, Sprague-Dawley
Design: regimen Daily Repeat, gender Male, age 6-8 weeks
Details: in vivo, po, 0 mg/kg, 72 h, tissue Blood, route oral GAVAGE, dose level Control, time 3 day, […]
Listed here are molecules together with their documented NEUTROPHIL.

Molecule: CC(=O)Nc1nnc(S(N)(=O)=O)s1 [ACETAZOLAMIDE]
NEUTROPHIL [%]: 9.33

Molecule: OCCN1CCN(CCCN2c3ccccc3Sc3ccc(C(F)(F)F)cc32)CC1 [FLUPHENAZINE]
NEUTROPHIL [%]: 9.17

Molecule: CC[C@H](C)C(=O)O[C@H]1C[C@@H](C)C=C2C=C[C@H](C)[C@H](CC[C@@H]3C[C@@H](O)CC(=O)O3)[C@H]21 [LOVASTATIN]
NEUTROPHIL [%]: 11.33

Molecule: CC[C@H](C)C(=O)O[C@H]1C[C@H](O)C=C2C=C[C@H](C)[C@H](CC[C@@H](O)C[C@@H](O)CC(=O)O)[C@H]21 [PRAVASTATIN]
NEUTROPHIL [%]: 5

Molecule: C#C[C@]1(O)CC[C@H]2[C@@H]3CCc4cc(O)ccc4[C@H]3CC[C@@]21C [ETHINYL ESTRADIOL]
NEUTROPHIL [%]: 10

Molecule: CC(CCc1ccc(O)cc1)NCCc1ccc(O)c(O)c1 (stereo not drawn) [DOBUTAMINE]
NEUTROPHIL [%]: 14.83

Molecule: CN(CCOc1ccc(CC2SC(=O)NC2=O)cc1)c1ccccn1 (stereo not drawn) [ROSIGLITAZONE]
NEUTROPHIL [%]: 5

Molecule: CCn1cc(C(=O)O)c(=O)c2cc(F)c(N3CCNCC3)nc21 [ENOXACIN]
NEUTROPHIL [%]: 10

###

Species on record: Rattus norvegicus
Experiment: DrugMatrix - Regimen: Daily Repeat
Type: toxicity, organism-based, Sprague-Dawley
Parameters: regimen Daily Repeat, gender Male, age 6-8 weeks
Settings: in vivo, po, 0 mg/kg, 120 h, tissue Plasma, route oral GAVAGE, dose level Control, time 5 day, […]
Kindly apply the following: Yes if URIC ACID is less than 0.7 mg/dL, No in every other case.

Compound: CN(CCOc1ccc(CC2SC(=O)NC2=O)cc1)c1ccccn1 (configuration not stated) [ROSIGLITAZONE]
Group: Yes

Compound: CC[C@H](C)C(=O)O[C@H]1C[C@@H](C)C=C2C=C[C@H](C)[C@H](CC[C@@H]3C[C@@H](O)CC(=O)O3)[C@H]21 [LOVASTATIN]
Group: Yes

Compound: CC(C)Cc1ccc(CC(=O)O)cc1 [IBUFENAC]
Group: No

Compound: NC[C@@H]1O[C@H](O[C@H]2[C@@H](O)[C@H](O[C@@H]3[C@@H](O)[C@H](N)C[C@H](N)[C@H]3O[C@H]3O[C@H](CN)[C@@H](O)[C@H](O)[C@H]3N)O[C@@H]2CO)[C@H](N)[C@@H](O)[C@@H]1O [FRAMYCETIN]
Group: No

Compound: C#C[C@]1(O)CC[C@H]2[C@@H]3CCc4cc(O)ccc4[C@H]3CC[C@@]21C [ETHINYL ESTRADIOL]
Group: No

###

Organism: Rattus norvegicus
Assay: DrugMatrix - Regimen: Daily Repeat
Assay type: toxicity, organism-based, Sprague-Dawley
Design: regimen Daily Repeat, gender Male, age 6-8 weeks
Details: in vivo, ip, 0 mg/kg, […], tissue Blood, route intraperitoneal, dose level Control, time 28 day, vehicle 100 % SALINE

Smiles Text: NC[C@H]1O[C@H](O[C@H]2[C@H](O)[C@@H](O[C@H]3O[C@H](CO)[C@@H](O)[C@H](N)[C@H]3O)[C@H](N)C[C@@H]2N)[C@H](N)C[C@@H]1O
ABSOLUTE BASOPHIL (cells/µL): 91

###

Listed here are compounds together with their documented CHLORIDE.
Organism: Rattus norvegicus
Assay: DrugMatrix - Regimen: Daily Repeat
Format: toxicity, organism-based, Sprague-Dawley
Parameters: regimen Daily Repeat, gender Male, age 6-8 weeks
Settings: in vivo, po, 0 mg/kg, 72 h, tissue Plasma, route oral GAVAGE, dose level Control, time 3 day, vehicle .5 % CMC
Readout Name: CHLORIDE (MEQ/L)

Compound: CN1C(=O)CN=C(c2ccccc2)c2cc(Cl)ccc21
Recorded Value: 99.17
//
Compound: O=c1cc(-c2ccccc2)oc2ccc3ccccc3c12
Recorded Value: 103
//
Compound: CC(=O)O[C@]1(C(C)=O)CC[C@H]2[C@@H]3C=C(Cl)C4=CC(=O)[C@@H]5C[C@@H]5[C@]4(C)[C@H]3CC[C@@]21C [CYPROTERONE ACETATE]
Recorded Value: 101
//
Compound: Nc1cccc(Cl)c1
Recorded Value: 103.5
//
Compound: CC[C@]1(O)CC[C@H]2[C@@H]3CCC4=CCCC[C@@H]4[C@H]3CC[C@@]21C
Recorded Value: 104.5
//
Compound: C[C@@H]1CC[C@H]2[C@@H](C)C(=O)O[C@@H]3O[C@@]4(C)CC[C@@H]1[C@]32OO4
Recorded Value: 100.83
//
Compound: Cc1cnc(C(=O)NCCc2ccc(S(=O)(=O)NC(=O)NC3CCCCC3)cc2)cn1 [GLIPIZIDE]
Recorded Value: 101
//
Compound: Clc1cc2c(cc1Cl)Oc1cc(Cl)c(Cl)cc1O2
Recorded Value: 103
//
Compound: C[C@@H](O)[C@H]1C(=O)N2C(C(=O)O)=C(S[C@@H]3CN[C@H](C(=O)N(C)C)C3)[C@H](C)[C@H]12
Recorded Value: 99.17
//
Compound: COc1ccc(/C=C/C(=O)Nc2ccccc2C(=O)O)cc1OC
Recorded Value: 99.17
//
Compound: CCCCC1C(=O)N(c2ccccc2)N(c2ccccc2)C1=O
Recorded Value: 102.5
//
Compound: CCOC(=O)[C@H](CCc1ccccc1)N[C@@H](C)C(=O)N1Cc2ccccc2C[C@H]1C(=O)O
Recorded Value: 101
//
Compound: CC(C)(Sc1cc(C(C)(C)C)c(O)c(C(C)(C)C)c1)Sc1cc(C(C)(C)C)c(O)c(C(C)(C)C)c1
Recorded Value: 99.17
//
Compound: CC(C(=O)O)c1ccc(-c2ccccc2)c(F)c1 (stereo not drawn)
Recorded Value: 99.17
//
Compound: CO[C@H]1C[C@@H]2CC[C@@H](C)[C@@](O)(O2)C(=O)C(=O)N2CCCC[C@H]2C(=O)O[C@H]([C@H](C)C[C@@H]2CC[C@@H](O)[C@H](OC)C2)CC(=O)[C@H](C)/C=C(\C)[C@@H](O)[C@@H](OC)C(=O)[C@H](C)C[C@H](C)/C=C/C=C/C=C/1C
Recorded Value: 98.17
//
Compound: C[C@]12C/C(=C/O)C(=O)C[C@@H]1CC[C@@H]1[C@@H]2CC[C@@]2(C)[C@H]1CC[C@]2(C)O
Recorded Value: 96.67
//
Compound: COc1ccccc1OCC(O)COC(N)=O (stereo not drawn)
Recorded Value: 100.83
//
Compound: C=C(CC)C(=O)c1ccc(OCC(=O)O)c(Cl)c1Cl
Recorded Value: 104.17
